% responders of in-vitro T cell proliferation test, Allergic values by entry
tested on: T cell lines obtained from HDM allergic individuals and non-allergics; experiment: In vitro T cell proliferation test in T cell lines (Example 3); assay type: cell-based, human; conditions: T cell lines from HDM allergic individuals (n=30); 0.5 or 2 ug/ml; 72 h
Give just the number in %; leave the unit off.

A001: house dust mite protein; SEQ ID NO: 13 (Der f), 14 (Der p); recombinant test protein (protein) KKSPDCDIERPIRECLKDGLLRYSSGQKINQFPDTIQDLNRACEELKKSETCARTFIDTCTESSYEKRSLDSLLDGIQRVMKRLCRSQTKKEKLLENVGCANSVVQDTKQCLKNYRMLVFAANKLDNKNKIMRILCCKSRKVAPCIGEAMKAKGTAVCSAKNIDYFKDVHQNIKQEMTAVVCSDFERDQCENVDVPNISESEYKDQNIFNPLRDLYKKVILG : 17

Okay, now this molecule:
Prompt: What value of % responders of in-vitro T cell proliferation test, Allergic has been recorded for this entry: A020: house dust mite protein; SEQ ID NO: 15 (Der f), 16 (Der p); Blo t SEQ ID NO: 316 printed as A0019 (protein) MSKPIFYYHPFSGPCRTVSTVAKILNVDMEMKKLDLLTKEHLNPEFLKVNPFHKVPTFVDSDGFVVDESRVIAMYLVESRKPDSFLYPKNDLKKRIQIDRWLHYDINLSTTISAPMFCVFRGHQVQDYQVEQGKETLKTLDGVMQSFEGKFLTGADQFTLADIAMYFSLNTMEVYPKYFKFDDYPNLKSWYHRVAEALKQYDTEGTIPKAIETMKQFIQQRAAEAEKH
Completion: 18
